# tested on: Human cathepsin L (Homo sapiens)
# Construct: purchased Calbiochem Corp
# Sequence (P07711 114-333): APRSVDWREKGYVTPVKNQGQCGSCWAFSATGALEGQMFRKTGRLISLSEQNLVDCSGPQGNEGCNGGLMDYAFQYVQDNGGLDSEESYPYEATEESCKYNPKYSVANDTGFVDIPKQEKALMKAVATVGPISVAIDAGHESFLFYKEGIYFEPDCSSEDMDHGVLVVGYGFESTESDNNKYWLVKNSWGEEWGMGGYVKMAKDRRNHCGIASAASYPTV
# procedure details: Measurement of cathepsin L inhibitory activity (Z-Phe-Arg-MCA fluorescent substrate)
# Assay type: biochemical
# condition set: selectivity ratio L/K
*1 amine or outer side, *2 acyl side, *3 side chain or, on linkers, in order; H or OH if unused. Where a SMILES comes first, the peptide text is derived from it. [ ]: non-standard residue; d: D form. The star is where a group is joined. Ac6c = NC1(C(=O)O)CCCCC1; Morpholide = C1CN(*)CCO1; Nle = CCCC[C@H](N)C(=O)O; Cbz = O=C(OCc1ccccc1)*; CO = O=C([*:1])[*:2]
Entry flag: T if L/K (ratio of cathepsin L IC50 to cathepsin K IC50) reaches 40; F if it does not.

>>> print(df.to_string())
                                   molecule  assigned_label
0  CC(C)[C@@H](C=O)NC(=O)C1(NC(=O)c2ccco2)CCCCC1               T
1  CC(C)C[C@H](NC(=O)c1ccco1)C(=O)N[C@H](C=O)C(C)C [Reference Example 187]               F
2  CCCC[C@@H](C=O)NC(=O)C1(NC(=O)N2CCOCC2)CCCCC1 [Example 10] ({Morpholide-CO}-[Ac6c]-[Nle]-aldehyde)               F
3  CCCC[C@@H](C=O)NC(=O)[C@H](CC(C)C)NC(=O)N1CCOCC1 [Reference Example 186]               F
4  CC(C)C[C@H](NC(=O)OCc1ccccc1)C(=O)N[C@H](C=O)C(C)C [Reference Example 184] (Cbz-Leu-Val-aldehyde)               T
5  CCCC[C@@H](C=O)NC(=O)[C@H](CC(C)C)NC(=O)OCc1ccccc1 [Reference Example 185]               F
6  CC(C)[C@@H](C=O)NC(=O)C1(NC(=O)OCc2ccccc2)CCCCC1 [Example 7] (Cbz-[Ac6c]-Val-aldehyde)               T
7  CCCC[C@@H](C=O)NC(=O)C1(NC(=O)OCc2ccccc2)CCCCC1 [Example 8] (Cbz-[Ac6c]-[Nle]-aldehyde)               T

From: patent US8957205B2
